Cited source for all entries: PubChem BioAssay AID248

Measured T/C, listed per entry.
System: L1210 leukemia ip in BDF1 mice, survival T/C
Assay: NCI In Vivo Anticancer Drug Screen. Data for tumor model L1210 Leukemia (intraperitoneal) in B6D2F1 (BDF1) mice
Conditions: endpoint: mean survival time; dose: 200.0 mg/kg/injection; schedule: Q01DX009 (ip); vehicle: Klucel (hydroxypropylcellulose) (HPC); higher = longer survival
Toxic doses and inconclusive results are not listed.
ASSAY ENDPOINT: T/C

- CN1CN(c2ccccc2)CSC1=S: 95 % of control
- O=C(Nc1cc([N+](=O)[O-])ccc1O)Nc1cccc(Cl)c1Cl: 100 % of control
- CCOC(=O)/C=C(/C)OC(C)=O: 98 % of control
- S=c1[nH]c(-c2ccccc2)cs1: 96 % of control
- C=CCOC(=O)Nc1ccccc1: 95 % of control
- O=C(CCBr)Nc1ccc(Cl)cc1C(=O)c1ccccc1: 97 % of control
- Cc1cc(=O)c(O)co1: 93 % of control
- Cc1ccc(NC(=O)CCC(=O)O)cc1Cl: 92 % of control
- CC(=O)c1cccc(NC(=O)Oc2ccc(F)cc2Cl)c1: 108 % of control
- COc1cccc(OC)c1C#N: 95 % of control
- CCOC(=O)C(C(=O)OCC)C1c2ccccc2C([N+](=O)[O-])c2ccccc21 (configuration not stated): 89 % of control
- O=C(Nc1ccc(F)cc1)Nc1ccc(I)cc1: 100 % of control
- CSc1nccnc1C: 105 % of control
- Cc1ccc(Cl)cc1NC(=O)Oc1ccc(C(C)(C)C)cc1Br: 100 % of control
- O=C(COc1ccccc1)Nc1ccc(Cl)cc1: 95 % of control
- Clc1ccc(C2CC3(CC(c4ccc(Cl)cc4)N2)SSC2(CC(c4ccc(Cl)cc4)NC(c4ccc(Cl)cc4)C2)S3)cc1 (configuration not stated): 108 % of control
- COC(=O)/C=C1\Nc2ccc([N+](=O)[O-])cc2NC1=O: 100 % of control
- Cc1ccc([N+](=O)[O-])cc1NC(=O)Nc1ccccc1C(F)(F)F: 96 % of control
- O=C(c1ccc(Cl)cc1)C1Cc2ccccc2C1=O (configuration not stated): 94 % of control
- CSc1nc2ccc(S(=O)(=O)O)cc2s1: 97 % of control
- CCOC(=O)c1ccc(NC(=O)Nc2cc(Cl)ccc2C)cc1: 98 % of control
- CC(=O)Nc1cccc(OCCCOc2cccc(C(=N)N)c2)c1: 94 % of control
- COc1ccc(C=O)cc1OCCCCCOc1cc(C=O)ccc1OC: 90 % of control
- c1coc(CNc2cc(NCc3ccco3)ncn2)c1: 95 % of control
- N#CC1CC2c3ccccc3C1([N+](=O)[O-])c1ccccc12 (configuration not stated): 98 % of control
- CCOC(=O)C(C)C(OCC)OCC (configuration not stated): 104 % of control
- Cc1ccc(CNc2cccc([N+](=O)[O-])c2)cc1: 93 % of control

====

Tested on: L1210 leukemia ip in BDF1 mice, survival T/C
Test: NCI In Vivo Anticancer Drug Screen. Data for tumor model L1210 Leukemia (intraperitoneal) in B6D2F1 (BDF1) mice
Conditions: endpoint: mean survival time; dose: 100.0 mg/kg/injection; schedule: Q01DX009 (ip); vehicle: Klucel (hydroxypropylcellulose) (HPC); higher = longer survival
Inconclusive results and toxic doses are left out. Peptide text beside a SMILES is read from it. * marks the point of attachment. Cbz = O=C(OCc1ccccc1)*; Bn = c1ccc(C*)cc1
ASSAY ENDPOINT: T/C

* CC1(C)C2CC3C(=CCCC3(Cl)C#N)C1C2 (stereo not drawn) | 98 % of control
* CCOc1ccc(NC(=O)c2c(Br)c(Br)c(Br)c(Br)c2C(=O)O)cc1 | 102 % of control
* O=C(/C=C\c1ccccc1)c1ccc(Cl)cc1 | 97 % of control
* CCCCCCCC/C=C\CCCCCCCC(=O)OCCCCCCCCCCCCCCCC | 104 % of control
* C(=N\Nc1nc2ccccc2s1)/c1ccc2ccccc2n1 | 96 % of control
* COC1OC(COS(=O)(=O)c2ccc(C)cc2)C2OC(C)(C)OC12 (stereo not drawn) | 95 % of control
* CCOc1ccc(OCC)c(NC(=O)Nc2cc([N+](=O)[O-])ccc2OC)c1 | 93 % of control
* CCOC(=O)/C=C(/C)OC(C)=O | 100 % of control
* CC(=O)N(C(C)=O)C1=C(c2ccccc2)C(=O)c2ccccc21 | 98 % of control
* CC(C)C(NC(=O)C(CSCc1ccccc1)NC(=O)OCc1ccccc1)C(N)=O (stereo not drawn) (Cbz-Cys(Bn)-Val-NH2; configuration not given here) | 87 % of control
* CC(C)(C)C1CCC(S(=O)(=O)c2ccccc2)C(Cl)C1 (stereo not drawn) | 102 % of control
* c1ccc(-c2nnc(-c3ccccc3)o2)cc1 | 101 % of control
* Cc1ccc(NC(=O)Nc2ccc(Cl)c(Cl)c2)cc1Cl | 97 % of control

====

Below: a set of entries, each annotated with reported T/C.
Test system: L1210 leukemia ip in BDF1 mice, survival T/C
Assay: NCI In Vivo Anticancer Drug Screen. Data for tumor model L1210 Leukemia (intraperitoneal) in B6D2F1 (BDF1) mice
Details: endpoint: mean survival time; dose: 400.0 mg/kg/injection; schedule: Q01DX001 (ip); vehicle: saline; higher = longer survival
Toxic doses and inconclusive results are not listed.
ASSAY ENDPOINT: T/C

- COc1ccc(C(=S)N2CCN(c3cccc(Cl)c3)CC2)cc1: 91 % of control
- O=C(c1ccccc1)c1cc(CN(C2CCCCC2)C2CCCCC2)c(O)cc1O: 96 % of control
- O=C(O)C(F)(F)C(F)(Cl)C(F)(F)C(F)(Cl)C(F)(F)C(F)(Cl)C(F)(F)Cl (configuration not stated): 107 % of control
- O=C1OC(=O)c2ccc([N+](=O)[O-])c3c(C(=O)O)ccc1c23: 104 % of control
- CCCCCCCCc1nc2c([nH]1)c(=O)n(C)c(=O)n2C: 102 % of control
- CCN(CC)C(=S)S.[Cu+2]: 105 % of control
- COCC(O)C(OC)C(OC)C(N)C=O (configuration not stated): 107 % of control
- Cc1cc2c(cc1C)C(=O)C(=O)N2: 98 % of control
- CCCC(=O)Oc1ccc(C(C)(C)CC(C)(C)C)cc1: 100 % of control
- Oc1ccc2ccccc2c1/C=N/N1CCN(/N=C/c2c(O)ccc3ccccc23)CC1: 90 % of control
- CCCCCCC(C)(C)NC(N)=O: 93 % of control
- Brc1ccc2[nH]c3c(c2c1)CCCC3: 98 % of control

====

Property: T/C; scope: individual molecules
Tested on: L1210 leukemia ip in BDF1 mice, survival T/C
Experiment: NCI In Vivo Anticancer Drug Screen. Data for tumor model L1210 Leukemia (intraperitoneal) in B6D2F1 (BDF1) mice
Conditions: endpoint: mean survival time; dose: 50.0 mg/kg/injection; schedule: Q04DX003 (ip); vehicle: Klucel (hydroxypropylcellulose) (HPC); higher = longer survival
Method: The antitumor activity of compounds was measured in mice bearing transplantable tumors. Survival or tumor size were measured and the results are expressed as the measurement made in the treated group (T) divided by the measurement made in the vehicle treated control group (C). The tumor model used in this assay is L1210 Leukemia (intraperitoneal) in B6D2F1 (BDF1) mice
Toxic doses and inconclusive results are not listed.
ASSAY ENDPOINT: T/C

- CC1CN1CCC(=O)Nc1ccc(Cl)c(Cl)c1 (configuration not stated): 97 % of control
- S=C(S)Nc1cccc2ccccc12: 100 % of control
- CCOC(=O)C(=Cc1ccc(C=C(C(=O)OCC)C(=O)OCC)cc1)C(=O)OCC: 100 % of control
- CCOC(=O)C1(C(=O)OCC)CCC2Nc3ccccc3C(=O)N21 (configuration not stated): 99 % of control
- COC1OC(CN(CCOS(C)(=O)=O)S(C)(=O)=O)C2OC(C)(C)OC12 (configuration not stated): 116 % of control
- CC1(C)N=C(N)N=C(N)N1c1ccc(CCc2ccccc2)cc1: 93 % of control
- O=C(c1ccc(Cl)cc1)c1cccc[n+]1Cc1ccccc1: 94 % of control
- CC(=O)Oc1c2c(c(CC=C(C)C)c3c1C(=O)C1=CC4CC5C(C)(C)OC(C/C=C(/C)C(=O)O)(C4=O)C15O3)OC(C)(CCC=C(C)C)C=C2 (configuration not stated): 103 % of control
- COC(=O)[C@H]1[C@H]2C[C@@H]3c4[nH]c5cc(OC)ccc5c4CCN3C[C@H]2C[C@@H](OC(=O)/C=C/c2cc(OC)c(OC)c(OC)c2)[C@@H]1OC: 103 % of control
- CC(C)(C)C(O)C1CCC(C(O)C(C)(C)C)S1(=O)=O (configuration not stated): 100 % of control
- NC(=S)N/N=C1/c2ccccc2-c2cc(Br)ccc21: 106 % of control
- O=C(c1ccccc1)C1C(c2ccccc2)N1Cc1ccccc1 (configuration not stated): 102 % of control
- COC(CBr)c1ccccc1 (configuration not stated): 96 % of control
- CCOC(=O)C1C2OC(=O)C(C(=O)C2CN(CCCl)CCCl)C1c1ccc(OC(C)=O)cc1 (configuration not stated): 93 % of control
- CC1(C)N=C(N)N=C(N)N1c1cccc(Oc2ccc(N)cc2)c1: 110 % of control
- CC(C)(C)C1CCC(NC(=O)C(Cl)(Cl)Cl)CC1 (configuration not stated): 97 % of control
- C=CCOCC(O)CN1CCC(C)CC1 (configuration not stated): 98 % of control
